Hey, just so you know, these numbers are from patent US5627203A.

// endpoint IC50 / system 5-HT3 receptors (Rattus norvegicus, UniProt P35563)

| compound | IC50, nM |
| --- | --- |
| Cc1csc2c1-n1cccc1C2=NOCCN1CCCCC1 | 4 |
| Cc1csc2c1-n1cccc1C2=NOC(CCN(C)C)c1ccccc1 (centres unmarked) | 200 |
| CC(CON=C1c2ccccc2-n2cccc21)N(C)C (centres unmarked) | 5.3 |
| CN1CCCC1CON=C1c2sccc2-n2cccc21 (racemic) | 2 |
| CCN(CC)CCON=C1c2scc(C)c2-n2cccc21 | 5 |

====

pIC50: −log10 of the molar value.
// endpoint pIC50 / system 5-HT2C receptors (Rattus norvegicus, UniProt P08909)
measured-endpoint: pIC50

| molecule | test-value |
| --- | --- |
| CN(C)CCON=C1c2ccccc2-n2cccc21 | 5.85 |
| Cc1csc2c1-n1cccc1/C2=N/OCCN | 6.74 |
| Cc1csc2c1-n1cccc1/C2=N/OCCN(C)C | 5.68 |
| Cc1csc2c1-n1cccc1C2=NOC(CCN(C)C)c1ccccc1 (stereo not shown) | 7.21 |
| CN(C)CCON=C1c2sccc2-n2cccc21 | 6.09 |
| Cc1ccc2c(c1)C(=NOCCC1CCCN1C)c1cccn1-2 (stereo not shown) | 5.22 |
| CN(C)CCON=C1c2cc(Cl)ccc2-n2cccc21 | 4.96 |
